Each entry below lists one item and its recorded Is compound selective in assay? Pb ODA active? value.
system: P. berghei ookinete development; settings: 1: YES; 0: NO

Guide cases for Is compound selective in assay? Pb ODA active?, answers given:
{"COMPOUND": "CCc1cc2c3c(N)nc(N)nc3ccc2n1C(C)CC (centres unmarked)", "TEST RESULT": "0 (0: NO)"}
{"COMPOUND": "COc1cc(NC(=O)Nc2ccc(Br)cc2C(=O)Nc2ccc(Br)cc2)cc(OC)c1OC", "TEST RESULT": "1 (1: YES)"}
{"COMPOUND": "Cc1[nH]c(C)c(C2CCC(c3ccc(Cl)cc3)CC2)c(=O)c1Cl (centres unmarked)", "TEST RESULT": "1 (1: YES)"}
{"COMPOUND": "O=C(O)CCSSc1cccc[n+]1[O-]", "TEST RESULT": "1 (1: YES)"}
{"COMPOUND": "CCCCN(C)CC#Cc1ccc(-c2ccc3[nH]c(C)c(Br)c(=O)c3c2)cn1", "TEST RESULT": "1 (1: YES)"}
{"COMPOUND": "COc1cccc(NC(=O)[C@H](C(C)C)n2c(=O)[nH]c3ccccc3c2=O)c1", "TEST RESULT": "1 (1: YES)"}
{"COMPOUND": "Cc1cc(C(=O)OCC(=O)Nc2c(C)n(C)n(-c3ccccc3)c2=O)c(C)n1-c1ccc(F)cc1", "TEST RESULT": "1 (1: YES)"}
{"COMPOUND": "Cc1cc(SC(C)(C)C)cc2c(Cl)c(C(N)=O)cnc12", "TEST RESULT": "0 (0: NO)"}
{"COMPOUND": "CCCCC1=CC2C(=O)C(C(=O)OC)=CN=C2C=C1OCc1ccccc1 (centres unmarked)", "TEST RESULT": "1 (1: YES)"}
{"COMPOUND": "Cc1[nH]c(C)c(-c2ccc(-c3ccccc3F)nc2)c(=O)c1Cl", "TEST RESULT": "1 (1: YES)"}

State measured Is compound selective in assay? Pb ODA active? of the compound CCC(C)(C)c1ccc2nc(N)nc(N)c2c1C with P. berghei ookinete development.
0 (0: NO)

State recorded Is compound selective in assay? Pb ODA active? with P. berghei ookinete development, entry COc1c(F)ccc2ncc(Cl)c(CCN3CCC(NCc4ccc5c(n4)NC(=O)CS5)CC3)c12.Cl , no comment.
1 (1: YES)

Please respond with reported Is compound selective in assay? Pb ODA active? (system P. berghei ookinete development) for Cc1[nH]c(C)c(-c2ccc(-c3ccccc3C(F)(F)F)nc2)c(=O)c1Br .
1 (1: YES)

Under P. berghei ookinete development, report Is compound selective in assay? Pb ODA active? for CCNC(=O)Nc1ccc(-c2cnc(N)c(-c3nc4ccc(OC)cc4[nH]3)c2)cc1
0 (0: NO)

* * *

system: HepG2 cells; test: HepG2 cytotoxicity assay; settings: HepG2 cytotoxicity unified across screens; >25 set to 25.00
Documented Unified cytotox across a set of compounds
Your answer is read as µM, so omit the unit and give the number.

{"COMPOUND": "CCc1c(CCNCCCCCCNCCc2ccc(Br)cc2)ccc(OC)c1OC.Cl", "Unified cytotox, µM": 3.20}
{"COMPOUND": "COc1ccc(CNCc2ccc(F)cc2)cc1-c1ccc(OC)c(S(=O)(=O)NCCN2CCCC2)c1.O=C(O)C(F)(F)F", "Unified cytotox, µM": 11.40}

Report Unified cytotox for CCCCCCCN1CC[C@@H](CCCc2ccnc3ccc(OCCCCN/C(N)=N/O)cc23)[C@@H](CC)C1.O=C(O)C(=O)O
17.20

Name the recorded Unified cytotox of the item CC(C)CNCc1ccc(-c2cccc(CN(CCN(C)C)C(=O)CCC3CCCC3)c2)cc1.O=C(O)C(F)(F)F in your answer.
5.50

In one line, give reported Unified cytotox of the entry CC(Cc1ccc(COc2ccc(CC(CO)NCCc3cccc(Cl)c3)cc2)cc1)NCCc1cccc(Cl)c1.Cl (stereo not drawn) .
3.50

Input Cc1cc(-c2cccc(CNC3CCCC3)c2)ccc1S(=O)(=O)NCCN1CCCC1.O=C(O)C(F)(F)F , output reported Unified cytotox.
7.50

Supply measured Unified cytotox of Nc1ncc(-c2ccc3nccc(-c4ccncc4)c3c2)cc1S(=O)(=O)N1CCCCC1 in your reply.
25.00

Please report the measured Unified cytotox for CN(C)CCN(Cc1ccccc1-c1ccc(CNCCc2ccccc2)cc1)C(=O)c1ccccc1.O=C(O)C(F)(F)F
7.54

In one line, give reported Unified cytotox of the entry Nc1ncc(-c2ccc3nccc(-c4ccncc4)c3c2)cc1S(=O)(=O)N1CCOCC1 .
25.00

Fill in reported Unified cytotox for this entry: Cl.c1ccc2c(NCCCCCCNc3ccnc4ccccc34)ccnc2c1
16.40

* * *

test system: HepG2 cells; assay: HepG2 cytotoxicity assay; conditions: HepG2 cytotoxicity unified across the three screens
REPORTED ENDPOINT: Unified cytotox (µM)
Give your result in µM as a bare value.

Example entries and their recorded answers appear below.
{"COMPOUND": "CC(C)(C)c1ccc(CN2CCC(CNC(=O)c3cc(-c4cccc(Cl)c4)cs3)C2)cc1.O=C(O)C(F)(F)F (stereo not shown)", "QUANTITY UNIT": "µM", "Unified cytotox": 9.36}
{"COMPOUND": "COc1ccc2cc(CNCCCCCCNCc3ccc4cc(OC)ccc4c3)ccc2c1.CS(=O)(=O)O", "QUANTITY UNIT": "µM", "Unified cytotox": 2.27}
{"COMPOUND": "CCOc1ccccc1CCNC(C)Cc1ccc(C(=O)Nc2ccc(CC(C)NCCc3cccc(Cl)c3)cc2)cc1 (stereo not shown)", "QUANTITY UNIT": "µM", "Unified cytotox": 3.37}

Query compound follows.
Specify reported Unified cytotox for the compound shown: CCc1c(CCNCCCCCCNCCc2ccc([N+](=O)[O-])cc2)ccc(OC)c1OC.Cl
5.46

* * *

Below, each of the compounds is paired with its reported Is compound selective in assay? Pf FGAA active? value.
system: P. falciparum female gametocytes; assay: P. falciparum female gametogenesis assay (Pf FGAA); settings: 1: YES; 0: NO

Please review the entries below; each comes with its answer.
{"COMPOUND": "CCCCN(CCCC)/C(=N/C(=N)NCc1ccc(Cl)c(Cl)c1)NCCCCCCN/C(=N\\C(=N)NCc1ccc(Cl)c(Cl)c1)N(CCCC)CCCC", "EXPERIMENTAL TARGET": "P. falciparum female gametocytes", "TEST RESULT": "0 (0: NO)"}
{"COMPOUND": "COc1cc2ccccc2c(OC)c1CCNCCCCNCCc1c(OC)cc2ccccc2c1OC.CS(=O)(=O)O", "EXPERIMENTAL TARGET": "P. falciparum female gametocytes", "TEST RESULT": "0 (0: NO)"}
{"COMPOUND": "FC(F)(F)c1ccc2[nH]c(-c3cccc(-c4ccc(CNCCN5CCNCC5)cc4)c3)nc2c1.O=C(O)C(F)(F)F", "EXPERIMENTAL TARGET": "P. falciparum female gametocytes", "TEST RESULT": "0 (0: NO)"}
{"COMPOUND": "O=C(Nc1nc(-c2ccccn2)cs1)c1ccc(Br)s1", "EXPERIMENTAL TARGET": "P. falciparum female gametocytes", "TEST RESULT": "1 (1: YES)"}

Look up and report measured Is compound selective in assay? Pf FGAA active? for this entry: CC(C)NCc1ccc(OCc2cccc(COc3ccc(CNC(C)C)cc3I)c2)c(I)c1.Cl
0 (0: NO)

Let me know recorded Is compound selective in assay? Pf FGAA active? for CC(Cc1ccc(C(=O)Nc2ccc(CC(C)NCCc3cccc(Cl)c3)cc2)cc1)NCCc1ccc(C(F)(F)F)cc1 (stereo not drawn) , thanks.
0 (0: NO)

* * *

system: HepG2 cells; assay: HepG2 cytotoxicity assay; conditions: read-out: HepG2 cytotoxicity assay IC50; dose response confirmation
REPORTED ENDPOINT: pIC50
The meaning of pIC50 here: minus log10 of the concentration in molar units.

Answered examples (2):
{"SMILES NOTATION": "Cc1ccc(C2(CN3CCC(NC(=O)c4[nH]ncc4Cl)CC3)CCCCC2)cc1", "pIC50": 4.56}
{"SMILES NOTATION": "O=C(NC1CCN(CC2(c3ccccc3F)CCCC2)CC1)c1ccn[nH]1", "pIC50": 4.38}

Then this compound:
Quickly give me recorded pIC50 for Cc1[nH]c(C)c(-c2ccc(OCc3cc(C(F)(F)F)cc(C(F)(F)F)c3)nc2)c(=O)c1Br
6.15

* * *

test system: P. berghei ookinete development; conditions: read-out: Pb Ookinete development assay IC50; dose response confirmation
One threshold, 900 nM, splits the recorded IC50 values: lower ones are label 1, equal or higher ones are label 0.

Use the examples below as a reference point.
{"MOLECULE": "Cc1cc(C2NC(=O)c3ccccc3N2)c(C)n1-c1ccc2c(c1)OCO2 (centres unmarked) [TCMDC-125051]", "EXPERIMENTAL TARGET": "P. berghei ookinete development", "CAT": "label 1"}
{"MOLECULE": "CC(=O)Oc1c(Cl)c(C)nc(C)c1-c1ccc(Oc2ccc(OC(F)(F)F)cc2)cc1 [TCMDC-137385]", "EXPERIMENTAL TARGET": "P. berghei ookinete development", "CAT": "label 0"}
{"MOLECULE": "O=C(NCc1ccco1)c1ccc(CN2CCN(C(c3ccccc3)c3ccccc3)CC2)cc1 [TCMDC-140763]", "EXPERIMENTAL TARGET": "P. berghei ookinete development", "CAT": "label 0"}
{"MOLECULE": "Cc1cc(=O)c(-c2ccc(Oc3cccc(C(F)(F)F)c3)cc2)c(C)[nH]1 [TCMDC-133308]", "EXPERIMENTAL TARGET": "P. berghei ookinete development", "CAT": "label 1"}

From here, focus on the item given below.
Please check: IC50 for Cl.Cl.c1ccc2c(NCCCCCCNc3c4ccccc4nc4ccccc34)c3ccccc3nc2c1 [TCMDC-124285] , strictly under 900 nM or not?
label 0
